All values here come from patent US20130196960A1.

Target: human CB2 (Homo sapiens)
Sequence (P34972 whole entry): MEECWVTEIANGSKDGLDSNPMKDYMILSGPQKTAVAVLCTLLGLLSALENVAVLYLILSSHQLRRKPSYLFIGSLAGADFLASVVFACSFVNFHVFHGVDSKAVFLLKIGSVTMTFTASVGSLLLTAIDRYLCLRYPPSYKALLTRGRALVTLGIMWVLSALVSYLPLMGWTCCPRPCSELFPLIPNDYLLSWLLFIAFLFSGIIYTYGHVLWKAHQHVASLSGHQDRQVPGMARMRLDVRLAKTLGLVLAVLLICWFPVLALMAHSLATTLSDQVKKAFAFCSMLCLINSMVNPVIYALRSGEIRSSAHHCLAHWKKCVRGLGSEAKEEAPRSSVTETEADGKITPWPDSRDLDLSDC
Assay: Human CB2 cannabinoid receptor radioligand binding assay ([3H]-CP 55,940 displacement, HEK-293 membranes)
Settings: CP 55,940 displacement, HEK-293 membranes; read-out: hCB2 IC50 (CP displ, nM, HEK)
// values below are reported IC50
readout.name: IC50

>>> result("CCS(=O)(=O)n1c(C)c(C(=O)c2cccc(Cl)c2Cl)c2ccsc21 [Compound I-21]")
"1000 to 10000 nM"
>>> result("Cc1c(C(=O)c2cccc(Cl)c2Cl)c2ccsc2n1CCC1CCN(C(=O)OC(C)(C)C)CC1 [Compound I-22]")
"> 10000 nM"
>>> result("CCCn1c(C)c(C(=O)c2ccccc2)c2ccsc21 [Compound I-7]")
"> 10000 nM"
